# Test system: 786-0 (Kidney Carcinoma);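 also: after 72 h of two-drug dosing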
# methodDescription: Bliss excess, mean over the matrix (fraction); higher = more synergy
observationType: Bliss excess
Reply briefly: the number, and no unit.

Some entries whose results are on file:
* CN(CCO)CC[C@H](CSc1ccccc1)Nc1ccc(S(=O)(=O)NC(=O)c2ccc(N3CCC([C@@H](O)c4ccccc4-c4ccc(Cl)cc4)CC3)cc2)cc1S(=O)(=O)C(F)(F)F [AZD4320] + Cc1cc2ncnn2cc1Nc1ncc2c(n1)n(C1CCOCC1)c(=O)n2C [AZD7648] (first compound max 1 µM, 7x7, partner max 10 µM) | -0.0428
* CN(CCO)CC[C@H](CSc1ccccc1)Nc1ccc(S(=O)(=O)NC(=O)c2ccc(N3CCC([C@@H](O)c4ccccc4-c4ccc(Cl)cc4)CC3)cc2)cc1S(=O)(=O)C(F)(F)F [AZD4320] + CCN(CCO)CCCOc1ccc2c(Nc3cc(CC(=O)Nc4cccc(F)c4)[nH]n3)ncnc2c1 [AZD2811] (first compound max 1 µM, 7x7, partner max 1 µM) | -0.0374

Turning to the following molecule.
// query So what's the measured Bliss excess for this one? C[C@@H](c1ccc2nccn2c1)n1nnc2ncc(-c3cnn(C)c3)nc21 [Savolitinib] + CC1(C)CCC(CN2CCN(c3ccc(C(=O)NS(=O)(=O)c4ccc(NCC5CCOCC5)c([N+](=O)[O-])c4)c(Oc4cnc5[nH]ccc5c4)c3)CC2)=C(c2ccc(Cl)cc2)C1 [Venetoclax] (first compound max 1 µM, 7x7, partner max 1 µM)
// result -0.0848

* * *

# Test system: SK-MM-2 (Plasma Cell Myeloma)
# methodDescription: combination Emax (second highest fraction inhibited in the dose matrix, 72 h); higher = more inhibition; extreme values may be limits of the assay
observationType: combination Emax
Reply briefly: the number, and no unit.

Some entries whose results are on file:
• N#Cc1cnc(Nc2cc(NC[C@H]3CNCCO3)c(C(F)(F)F)cn2)cn1 [SRA737] + O=c1[nH]cc(F)c(=O)[nH]1 [5-Fluorouracil] (first compound max 10 µM, 7x7, partner max 20 µM) = 0.473
• Cc1c2c(nn1C)CSCc1cc(n(C)n1)CSc1cc(c3ccccc3c1)OCCCc1c(C(=O)O)n(C)c3c-2c(Cl)ccc13 [AZD5991] + CC(=O)O[C@H]1C(=O)[C@@]2(C)[C@H]([C@H](OC(=O)c3ccccc3)[C@]3(O)C[C@H](OC(=O)[C@H](O)[C@@H](NC(=O)c4ccccc4)c4ccccc4)C(C)=C1C3(C)C)[C@]1(OC(C)=O)CO[C@@H]1C[C@@H]2O [Paclitaxel] (first compound max 1 µM, 7x7, partner max 3 µM) = 0.34

Turning to the following compound.
// query So what's the measured combination Emax for this one? C=CCn1c(=O)c2cnc(Nc3ccc(N4CCN(C)CC4)cc3)nc2n1-c1cccc(C(C)(C)O)n1 [AZD1775] + O=C(c1cc(Cc2n[nH]c(=O)c3ccccc23)ccc1F)N1CCN(C(=O)C2CC2)CC1 [Olaparib] (first compound max 1 µM, partner max 10 µM)
// result 0.705

* * *

# Tested on: KYM-1 (Rhabdomyosarcoma)
# methodDescription: combination Emax (second highest fraction inhibited in the dose matrix, 72 h); higher = more inhibition; extreme values may be limits of the assay
observationType: combination Emax
Reply briefly: the number, and no unit.

Some entries whose results are on file:
• CN(CCO)CC[C@H](CSc1ccccc1)Nc1ccc(S(=O)(=O)NC(=O)c2ccc(N3CCC([C@@H](O)c4ccccc4-c4ccc(Cl)cc4)CC3)cc2)cc1S(=O)(=O)C(F)(F)F [AZD4320] + Cc1cc2ncnn2cc1Nc1ncc2c(n1)n(C1CCOCC1)c(=O)n2C [AZD7648] (first compound max 1 µM, 7x7, partner max 10 µM) = 0.0895
• CC(=O)c1c(C)c2cnc(Nc3ccc(N4CCNCC4)cn3)nc2n(C2CCCC2)c1=O [Palbociclib] + Cn1cnc2c(F)c(Nc3ccc(Br)cc3Cl)c(C(=O)NOCCO)cc21 [Selumetinib] (first compound max 10 µM, 7x7, partner max 10 µM) = 0.93
• C[C@@H](Oc1cc(-c2cnn(C3CCNCC3)c2)cnc1N)c1c(Cl)ccc(F)c1Cl [Crizotinib] + CC1=C(C(=CC=C1)Cl)NC(=O)C2=CN=C(S2)NC3=CC(=NC(=N3)C)N4CCN(CC4)CCO [Dasatinib] (first compound max 10 µM, 7x7, partner max 2 µM) = 0.917
• CN(C)CCCOc1ccc(-c2ccc3ncc4c(c3c2)n(C2CCOCC2)c(=O)n4C)cn1 [AZD0156] + C=CCn1c(=O)c2cnc(Nc3ccc(N4CCN(C)CC4)cc3)nc2n1-c1cccc(C(C)(C)O)n1 [AZD1775] (first compound max 1 µM, partner max 1 µM) = 0.355

Turning to the following molecule.
// query So what's the measured combination Emax for this one? C=CCn1c(=O)c2cnc(Nc3ccc(N4CCN(C)CC4)cc3)nc2n1-c1cccc(C(C)(C)O)n1 [AZD1775] + C1CN(CCC1(C(=O)N[C@@H](CCO)C2=CC=C(C=C2)Cl)N)C3=NC=NC4=C3C=CN4 [Capivasertib] (first compound max 3 µM, partner max 3 µM)
// result 0.767
